Catalogue of Ki readings, one per entry.
Target: human histamine H4 receptor (Homo sapiens)
Construct: expressed in transfected cells; host or cells: SK-N-MC cells or COS7 cells, transiently transfected; cell membranes used
Sequence (Q9H3N8 whole entry): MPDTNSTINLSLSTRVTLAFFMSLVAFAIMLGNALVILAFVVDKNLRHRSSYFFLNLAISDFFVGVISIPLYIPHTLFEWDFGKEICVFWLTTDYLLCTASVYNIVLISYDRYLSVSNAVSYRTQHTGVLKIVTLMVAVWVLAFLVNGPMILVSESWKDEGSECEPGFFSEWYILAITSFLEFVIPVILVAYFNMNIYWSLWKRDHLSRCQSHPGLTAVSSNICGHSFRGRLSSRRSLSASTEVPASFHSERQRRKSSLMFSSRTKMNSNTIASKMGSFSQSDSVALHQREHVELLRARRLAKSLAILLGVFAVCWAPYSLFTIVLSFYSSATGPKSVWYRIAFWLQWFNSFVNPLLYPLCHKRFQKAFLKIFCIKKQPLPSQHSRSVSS
Test: Binding Assay on Recombinant Human Histamine H4 Receptor
Counter-ions that a name gives are not always drawn.
Express the result in nM but write the number alone.

Below, each entry is followed by its recorded Ki result.
COc1ccc2oc3c(N4C[C@H]5CCN[C@H]5C4)nc(N)nc3c2c1 (relative stereo) [Example 114, trifluoroacetic acid salt] ... 91
Nc1nc(N2C[C@H]3C[C@@H]2CN3)c2oc3ccc(Cl)cc3c2n1 [Example 81, trifluoroacetic acid salt] ... 100

Next, consider the following compound.
Item under review: Nc1nc(N2CC3CCCNC3C2)c2oc3ncccc3c2n1 (stereo not drawn) . Reported Ki?
87

====

Target: human histamine H4 receptor (Homo sapiens)
Construct: expressed in transfected cells; host or cells: SK-N-MC cells or COS7 cells, transiently transfected; cell membranes used
Test: Binding Assay on Recombinant Human Histamine H4 Receptor
Conditions: competition binding with 3H-histamine (5 nM), membranes of SK-N-MC or COS7 cells expressing human H4 receptor; Cheng-Prusoff, KD 5 nM; average of results obtained; read-out: Ki
Structures can show the parent of a compound that is named as a salt.
readout type: pKi
pKi is a log-scale quantity: -log10 of the concentration expressed in molar.

These recorded examples may help you get a feel for the data.
Nc1nc(N2C[C@@H]3C[C@H]2CN3)c2oc3cccc(Cl)c3c2n1 [Example 155, trifluoroacetic acid salt] ... 6.34
CN1CCN(c2nc(N(C)C)nc3c2oc2ccc(Cl)cc23)CC1 ... 6.14

Param item = CN1CCN(c2nc(N)nc3c2sc2cc(Cl)ccc23)CC1 [Example 63, trifluoroacetic acid salt] ; retrieve measured pKi.
7.72

Query: pKi; subject: Nc1nc(N2CC(N)C2)c2oc3ccc(Cl)cc3c2n1 [Example 129, trifluoroacetic acid salt]
7.72

What pKi value was documented for this molecule, CN[C@@H]1CCN(c2nc(N)nc3c2oc2cccc(OC)c23)C1 [Example 100, trifluoroacetic acid salt] ?
7.70

Name the reported pKi value associated with the molecule CN(C)[C@H]1CCCN(c2nc(N)nc3c2oc2ccc(Cl)cc23)C1 [Example 75, trifluoroacetic acid salt]
6.19

# pKi lookup, item Nc1nc(N2CC[C@@H](N)C2)c2oc3ccc(Cl)cc3c2n1 [Example 25, trifluoroacetic acid salt]
8.62

What value of pKi has been recorded for this entry: `CSCCNc1nc(N2CCN(C)CC2)c2oc3ccc(Cl)cc3c2n1`
6.28

Quick check: pKi of `COc1ccc2oc3c(N4CCN(C)CC4)nc(NCCO)nc3c2c1` ?
6.70

====

Molecular target: human histamine H4 receptor (Homo sapiens)
Construct: expressed in transfected cells; host or cells: SK-N-MC cells or COS7 cells, transiently transfected; cell membranes used
Assay: Binding Assay on Recombinant Human Histamine H4 Receptor
Conditions: competition binding with 3H-histamine (5 nM), membranes of SK-N-MC or COS7 cells expressing human H4 receptor; Cheng-Prusoff, KD 5 nM; average of results obtained; read-out: Ki
Counter-ions that a name gives are not always drawn.
readout type: Ki

As a guide, the following entries are already answered.
NC1CN(c2nc(NCCO)nc3c2oc2ccc(Cl)cc23)C1 [Example 162] ... > 10 µM
N[C@H]1CCCN(c2nc(NCCO)nc3c2oc2ccc(Cl)cc23)C1 [Example 161] ... > 10 µM

Okay, next one:
Query for human histamine H4 receptor (Homo sapiens): what Ki does the record show for Nc1nc(N2C[C@@H]3C[C@H]2CN3)c2oc3ccc(F)c(F)c3c2n1 [Example 149, trifluoroacetic acid salt] ?
> 10 µM
